The following compounds are listed with their measured log fold change Tl+ flux values.
tested on: R275C; experiment: modulators of BK channel variants, profiling panel, selectivity assay, cell-based, U2OS BacMam, thallium flux, beta subunits (AID 1259406); settings: at 30 µM;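 note: initial slope of Thallos dye fluorescence rise after thallium is added; log ratio against the mean of 0.3% DMSO vehicle wells on the same plate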
Kindly provide the number alone.

Reference set, count: 5
[
  {
    "compound": "CN1C(=O)CN=C(c2ccccc2)c2cc(Cl)ccc21",
    "target.under.test": "R275C",
    "reported.measurement": -0.0487
  },
  {
    "compound": "CN=C1CN(O)C(c2ccccc2)=c2cc(Cl)ccc2=N1",
    "target.under.test": "R275C",
    "reported.measurement": -0.0835
  },
  {
    "compound": "Cc1csc2sc(C=C(C#N)C#N)c(C)c12",
    "target.under.test": "R275C",
    "reported.measurement": 0.0225
  },
  {
    "compound": "CCOC(=O)C1(c2ccccc2)CCN(CCC(C#N)(c2ccccc2)c2ccccc2)CC1",
    "target.under.test": "R275C",
    "reported.measurement": 0.0145
  },
  {
    "compound": "c1ccc(Cn2ccnc2)cc1",
    "target.under.test": "R275C",
    "reported.measurement": -0.0227
  }
]

Input: Can you share its log fold change Tl+ flux? I mean this compound: CNCC(O)c1ccc(O)cc1 (stereo unspecified)
Output: -0.0246

---

experiment: suppressors of polyQ aggregation in yeast, 75Q-TubU reporter (AID 1593); settings: Yeast 75Q polyglutamine aggregation reporter
Response field label takes satisfied when score is strictly below 1 and not satisfied in all other cases.

Worked set:
[
  {
    "molecule": "CC[N+]1(C)CCCC(OC(=O)C(O)(c2ccccc2)c2ccccc2)C1 (configuration not stated)",
    "assigned.class": "not satisfied"
  },
  {
    "molecule": "CC[C@@H]1C(=O)OC[C@@H]1Cc1cncn1C",
    "assigned.class": "not satisfied"
  },
  {
    "molecule": "O=c1[nH]c2ccccc2n1C1CCN(CCCC(c2ccc(F)cc2)c2ccc(F)cc2)CC1",
    "assigned.class": "not satisfied"
  },
  {
    "molecule": "CC(=O)O[C@H]1C[C@H](O[C@H]2[C@@H](O)C[C@H](O[C@H]3[C@@H](O)C[C@H](O[C@H]4CC[C@@]5(C)C(CCC6C5C[C@@H](O)[C@]5(C)[C@@H](C7=CC(=O)OC7)CC[C@]65O)C4)O[C@@H]3C)O[C@@H]2C)O[C@H](C)[C@H]1O[C@@H]1O[C@H](CO)[C@@H](O)[C@H](O)[C@H]1O (some centres not stated)",
    "assigned.class": "not satisfied"
  }
]

Input: API: query returns whether the molecule falls strictly under 1 in score. Query: NCCc1cc(O)c(O)cc1O
Output: not satisfied

---

experiment: enhancers of glutamate uptake in motor neurons, MN-1 cell line (AID 1612); conditions: MN-1 motor neuron cells, stronger effect = higher value;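 note: tested at 1 µM final; 0% = mean of DMSO vehicle wells on each plate; positive means more glutamate uptake than control and negative means less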
The following compounds are listed with their measured glutamate uptake change values.
Put your answer as a value accompanied by its unit after it.

[
  {
    "compound": "O=C(CCCN1CCC2(CC1)C(=O)NCN2c1ccccc1)c1ccc(F)cc1",
    "glutamate uptake change": "-22.8%"
  }
]

Input: Can you share its glutamate uptake change? I mean this compound: C[C@@]1(C(=O)O)CC[C@]2(C)CC[C@]3(C)C4=CC=C5C=C(O)C(=O)C=C5[C@]4(C)CC[C@@]3(C)[C@@H]2C1
Output: -13.4%

Input: Can you share its glutamate uptake change? I mean this compound: N#C/C(=C\c1ccc(O)cc1)C(=O)O
Output: 12%

Input: Can you share its glutamate uptake change? I mean this compound: C[C@]12CCC(=O)C=C1CCC1C2CC[C@@]2(C)C1CC[C@@H]2O (stereo partly drawn)
Output: 18.8%

Input: Can you share its glutamate uptake change? I mean this compound: CC[N+]1(C)CCCC(OC(=O)C(O)(c2ccccc2)c2ccccc2)C1 (stereo not drawn)
Output: -17.4%

Input: Can you share its glutamate uptake change? I mean this compound: [N-]=[N+]=CC(=O)OCC(N)C(=O)O (stereo not drawn)
Output: -10.2%

Input: Can you share its glutamate uptake change? I mean this compound: CCCCCc1cc(O)c2c(c1)OC(C)(C)c1ccc(C)cc1-2
Output: -26.4%

Input: Can you share its glutamate uptake change? I mean this compound: O=[N+]([O-])c1cc([As](=O)(O)O)ccc1O
Output: -17%

---

target: L-lactate dehydrogenase (Plasmodium falciparum (isolate CDC / Honduras)); experiment: PfLDH activity inhibition – cell lysate, 3D7 strain, counter-screen for P. falciparum growth inhibition project (AID 2304);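 note: 0% = vehicle and 100% = reference inhibitor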; details: P. falciparum 3D7 crude extract, LDH APAD/NBT absorbance; at 2 µM; stronger effect = higher value
readout.label: inhibition (%)
Kindly provide the numeric value in % only, without the unit symbol.

[
  {
    "molecule": "CCN(CC)CCOC(=O)C(OC)(c1ccccc1)c1ccccc1",
    "unit.abbrev": "%",
    "inhibition": 2
  },
  {
    "molecule": "COc1ccc2nc(-c3ccc(F)cc3)cc([C@@H](O)[C@@H]3C[C@@H]4CCN3CC4C=NO)c2c1 (stereo partly drawn)",
    "unit.abbrev": "%",
    "inhibition": -2
  },
  {
    "molecule": "CC(Cc1ccc(S(=O)(=O)N(C(C)C)C(C)C)cc1)NCC(O)c1cccc(C(F)(F)F)c1 (stereo not drawn)",
    "unit.abbrev": "%",
    "inhibition": 4
  },
  {
    "molecule": "Cc1c(C)c2c(c(C)c1O)CC[C@@](C)(C(=O)N1CCC(CN3CCC(c4c[nH]c5ccccc45)CC3)CC1)O2",
    "unit.abbrev": "%",
    "inhibition": 3
  },
  {
    "molecule": "COc1cc(CN2CCN(c3ccnc(N(C)C4CCN(C)CC4)n3)CC2)cc(Cl)c1O",
    "unit.abbrev": "%",
    "inhibition": -5
  }
]

Input: Lab note: need inhibition with L-lactate dehydrogenase (Plasmodium falciparum (isolate CDC / Honduras)) for entry O=C(Nc1ccc(Oc2ccccc2)cc1)NC1CCC(CN2CCC(c3c[nH]c4ccccc34)CC2)CC1 (stereo not drawn) , please look it up.
Output: 4

Input: Lab note: need inhibition with L-lactate dehydrogenase (Plasmodium falciparum (isolate CDC / Honduras)) for entry COc1cc(NCCCNC(=O)c2cn(Cc3ccccc3)c3ccccc23)nc2ccccc12 , please look it up.
Output: 0

Input: Lab note: need inhibition with L-lactate dehydrogenase (Plasmodium falciparum (isolate CDC / Honduras)) for entry Cn1nc(C(F)(F)F)cc1-c1ccc(C(=O)NC2CCC(CN3CCC(c4c[nH]c5ccccc45)CC3)CC2)s1 (stereo not drawn) , please look it up.
Output: -1

Input: Lab note: need inhibition with L-lactate dehydrogenase (Plasmodium falciparum (isolate CDC / Honduras)) for entry O=C(NCc1ccc(S(=O)(=O)N2CCC(CN3CCC(c4c[nH]c5ccccc45)CC3)CC2)s1)c1ccccc1 , please look it up.
Output: 5

---

The following compounds are listed with their measured cell count values.
test: sensitizers of A549 cells to miR-34 induction, primary screen, imaging, A549 dox-inducible miR-34, nuclei and caspase counts (AID 1347080); conditions: A549 miR-34 inducible, Hoechst nuclei count, 48 h; measured here: total cells without miR-34 induction
Kindly provide the number alone.

Reference set, count: 5
[
  {
    "compound": "CCCCC/C=C\\C/C=C\\C/C=C\\C/C=C\\CCCC(=O)N[C@@H](C)CO",
    "reported.measurement": 5940
  },
  {
    "compound": "COc1cc(-n2c(=S)[nH]c3ccccc3c2=O)c(Cl)cc1Cl",
    "reported.measurement": 7540
  },
  {
    "compound": "Cc1ncc(CN2CC=C(c3ccccc3)CC2)c(N)n1",
    "reported.measurement": 9190
  },
  {
    "compound": "C[C@](O)(CS(=O)(=O)c1ccc(F)cc1)C(=O)Nc1ccc(C#N)c(C(F)(F)F)c1",
    "reported.measurement": 9190
  },
  {
    "compound": "O=C(NCC1CCOCC1)c1cnc(Nc2ccc(Cl)cc2Cl)nc1C(F)(F)F",
    "reported.measurement": 8790
  }
]

Input: Can you share its cell count? I mean this compound: CC(C)(C)[C@@]1(O)C[C@@H]2OC(=O)C[C@@]23C(=O)O[C@H]2OC(=O)C(O)C213 (some centres not stated)
Output: 9500

Input: Can you share its cell count? I mean this compound: [N-]=[N+]=CC(=O)OCC(N)C(=O)O (configuration not stated)
Output: 722

---

test: sensitizers of A549 cells to miR-34 induction, primary screen, imaging, A549 dox-inducible miR-34, nuclei and caspase counts (AID 1347080); settings: A549 miR-34 inducible, Hoechst nuclei count, 48 h; measured here: total cells without miR-34 induction
The following molecules are listed with their measured cell count values.

Reference set, count: 5
[
  {
    "molecule": "COc1cc(OC)c(OC)cc1C=O",
    "cell count": 10100
  },
  {
    "molecule": "COc1cc2c3cc1Oc1cc(ccc1O)C[C@@H]1c4c(cc(OC)c(O)c4Oc4cccc(c4)C[C@@H]3N(C)CC2)CC[N+]1(C)C",
    "cell count": 9980
  },
  {
    "molecule": "CC(C)(C)NCC(O)COc1cccc2[nH]c(C#N)cc12 (centres undefined)",
    "cell count": 9910
  },
  {
    "molecule": "C=C[C@H]1CN2CC[C@H]1C[C@@H]2[C@@H](O)c1ccnc2ccccc12",
    "cell count": 10300
  },
  {
    "molecule": "CN1C[C@H](C(=O)N[C@]2(C)O[C@@]3(O)[C@@H]4CCCN4C(=O)[C@H](Cc4ccccc4)N3C2=O)C=C2c3cccc4[nH]cc(c34)C[C@H]21",
    "cell count": 10200
  }
]

Input: Can you share its cell count? I mean this molecule: C[C@]12CCC3[C@@H](CC[C@@H]4C[C@H](O)CC[C@]34C)[C@@H]1CCC2=O (some centres undefined)
Output: 9980

Input: Can you share its cell count? I mean this molecule: C[C@]12CCC(=O)C(O)=C1CC[C@@H]1[C@@H]2CC[C@]2(C)C(=O)CC[C@@H]12
Output: 10100

Input: Can you share its cell count? I mean this molecule: CP(=O)(O)C1=CCNCC1
Output: 9940

Input: Can you share its cell count? I mean this molecule: C[C@@H]1CC([C@H](O)CC2CC(=O)NC(=O)C2)C(=O)[C@@H](C)C1 (some centres undefined)
Output: 1780

Input: Can you share its cell count? I mean this molecule: CC(C)C[C@H]1C(=O)N2CCC[C@H]2[C@]2(O)O[C@](NC(=O)[C@@H]3C=C4c5cccc6[nH]cc(c56)C[C@H]4N(C)C3)(C(C)C)C(=O)N12
Output: 8220

Input: Can you share its cell count? I mean this molecule: CCCCC[C@@H](/C=C/C=C\CCCCCCCC(=O)O)OO
Output: 5820

Input: Can you share its cell count? I mean this molecule: CC(C)N(CCNC(=O)CN1CCCC1=O)C(C)C
Output: 10600

Taken from PubChem BioAssay.
